# Assayed system: T1, human Nectin-4 extracellular antigen hNectin-4-His (human, UniProt Q96NY8 32-349)
# T1 construct: C-terminal 8xHis tag included
# T1 sequence: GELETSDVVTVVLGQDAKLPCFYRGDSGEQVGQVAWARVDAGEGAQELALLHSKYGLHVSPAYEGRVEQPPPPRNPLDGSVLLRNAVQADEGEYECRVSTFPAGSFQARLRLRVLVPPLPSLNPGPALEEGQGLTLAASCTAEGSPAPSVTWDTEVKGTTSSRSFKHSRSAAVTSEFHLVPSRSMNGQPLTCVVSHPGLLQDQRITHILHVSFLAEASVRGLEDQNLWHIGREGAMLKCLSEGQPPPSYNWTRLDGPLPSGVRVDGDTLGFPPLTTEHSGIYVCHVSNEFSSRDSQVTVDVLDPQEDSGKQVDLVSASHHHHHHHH
# Test: SPR, antibody on Protein A chip, 1:1 fit
Experimental endpoint: kon (M⁻¹ s⁻¹)
Answers are plain numbers, in M⁻¹ s⁻¹.

Illustrative cases are given below, each with its answer.
[
  {
    "Binder": "antibody 10F4-1C10 (antibody, human IgG1, kappa, V domains shown) VH: EVQLVESGGGLVQPGGSLRLSCAASGYNFGSYDMSWVRQAPGKGLEWVSGIKTYGGNTHYADSVKGRFTISRDNSKNTLYLQMNSLRAEDTAVYYCAREYSDVVDYVSVRTPLDYWGQGTLVTVSS VL: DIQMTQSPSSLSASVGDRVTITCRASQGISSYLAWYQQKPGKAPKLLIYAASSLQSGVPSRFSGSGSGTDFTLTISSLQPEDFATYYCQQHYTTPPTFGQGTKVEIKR",
    "Experimental endpoint": "kon",
    "Unit": "M⁻¹ s⁻¹",
    "Value measured": 265000
  },
  {
    "Binder": "antibody 1F3-1G11 (antibody, human IgG1, kappa, V domains shown) VH: EVQLVESGGGLVQPGGSLRLSCAASGYSFTGYGMSWVRQAPGKGLEWVSGISPSGGTIGYADSVKGRFTISRDNSKNTLYLQMNSLRAEDTAVYYCARAELLAFDVYTASDYWGQGTLVTVSS VL: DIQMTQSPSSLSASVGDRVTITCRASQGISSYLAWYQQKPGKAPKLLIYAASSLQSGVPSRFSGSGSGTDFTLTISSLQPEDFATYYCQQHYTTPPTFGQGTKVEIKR",
    "Experimental endpoint": "kon",
    "Unit": "M⁻¹ s⁻¹",
    "Value measured": "1.41e+06"
  }
]

Okay, now this binder:
Task: Which kon is listed for antibody 10F4-1F8 (antibody, human IgG1, kappa, V domains shown) VH: EVQLVESGGGLVQPGGSLRLSCAASGYTFTDYDMSWVRQAPGKGLEWVSSIITDGGGAFYADSVKGRFTISRDNSKNTLYLQMNSLRAEDTAVYYCAREYSDVVDYVSVRTPLDYWGQGTLVTVSS VL: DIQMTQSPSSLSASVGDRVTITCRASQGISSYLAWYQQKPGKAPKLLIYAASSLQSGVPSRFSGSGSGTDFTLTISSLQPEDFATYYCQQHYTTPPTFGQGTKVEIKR ?
Result: 424000

Reference for the values: patent US20260144882A1
